Biological target: T1, anti-CD28 Fab (SEQ ID NOs: 202, 203)
T1 construct: biotinylated and captured on neutravidin coated plates in the phage ELISA
T1 sequence (VH, as listed by the source, chain 1 of 2): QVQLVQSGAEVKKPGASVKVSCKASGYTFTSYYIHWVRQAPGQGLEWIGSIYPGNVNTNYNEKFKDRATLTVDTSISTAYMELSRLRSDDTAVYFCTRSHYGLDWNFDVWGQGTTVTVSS
T1 sequence (VL, as listed by the source, chain 2 of 2): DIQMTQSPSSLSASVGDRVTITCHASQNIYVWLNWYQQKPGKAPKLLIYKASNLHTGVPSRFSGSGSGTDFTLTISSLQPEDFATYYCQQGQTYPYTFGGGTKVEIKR
Assay: phage ELISA on captured Fab, wells pre-incubated with CD28 antigen (competitor);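 also: clonal phage ELISA with wells pretreated with CD28 plus blocking buffer before phage addition, bound phage detected by HRP-linked anti-M13 antibody, reference wells got blocking buffer only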
property.name: Anti-CD28 Fab signal in the presence of CD28
Respond using a number only.

YCDGHLDVYRAKCL (on phage, pIII fusion) [Phage-491] = 0.09
YCDGHLALHMKKCL (on phage, pIII fusion) [Phage-569] = 0.08

I am curious: what Anti-CD28 Fab signal in the presence of CD28 value has been reported for YCDGHLQIYMGKCL (on phage, pIII fusion) [Phage-552] ? 0.06

May I ask what Anti-CD28 Fab signal in the presence of CD28 has been recorded for YCDGHSTEYMEKCL (on phage, pIII fusion) [Phage-453] ? 0.08

Look up Anti-CD28 Fab signal in the presence of CD28: YCDGHAEEYLLKCL (on phage, pIII fusion) [Phage-529] 0.05

Any idea what Anti-CD28 Fab signal in the presence of CD28 was measured for YCDGHSPQYIQKCL (on phage, pIII fusion) [Phage-566] ? 0.07

Query (binder): YCDGHSAEYLLKCL (on phage, pIII fusion) [Phage-478] ; field requested: Anti-CD28 Fab signal in the presence of CD28 0.07

Consider the binder shown here: YCDGHSSLYMHKCL (on phage, pIII fusion) [Phage-454] What is its recorded Anti-CD28 Fab signal in the presence of CD28? 0.07
